Target: human CB1 receptor (Homo sapiens, UniProt P21554)
Construct: expressed in transfected cells; host or cells: HEK293
Sequence (P21554 whole entry): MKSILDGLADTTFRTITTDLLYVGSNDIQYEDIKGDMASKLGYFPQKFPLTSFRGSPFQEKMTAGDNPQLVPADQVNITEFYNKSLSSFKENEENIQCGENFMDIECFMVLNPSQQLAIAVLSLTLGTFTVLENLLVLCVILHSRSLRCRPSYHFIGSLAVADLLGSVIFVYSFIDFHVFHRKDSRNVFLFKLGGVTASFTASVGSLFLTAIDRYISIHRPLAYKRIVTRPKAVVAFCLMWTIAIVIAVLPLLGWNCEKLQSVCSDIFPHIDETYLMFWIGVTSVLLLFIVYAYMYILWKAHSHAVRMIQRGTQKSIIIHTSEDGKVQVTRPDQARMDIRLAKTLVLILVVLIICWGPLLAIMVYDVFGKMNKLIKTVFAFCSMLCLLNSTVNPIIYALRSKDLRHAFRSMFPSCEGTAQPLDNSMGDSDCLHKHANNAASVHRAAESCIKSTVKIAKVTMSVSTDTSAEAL
Experiment: bioSensAll GAPL-Gi2 BRET biosensor assay in HEK293 cells transfected with hCB1; test compound added before EC75-80 of agonist CP55,940 (0.1 nM)
Type: cell-based
Details: vs CP55,940 0.1 nM (EC75-80), read-out: CB1 wt Gi2 IC50
RECORDED_ENDPOINT: pIC50
As a rule, pIC50 stands for the negative log10 of the concentration, concentration in M.

Below, each entry is followed by its recorded pIC50 result.
CC(C)OC1(C(N)=O)CCN(c2nc(OCC(C)(C)O)nc3c2nc(-c2ccc(C#N)nc2)n3-c2ccc(Cl)cc2)CC1: 8.64
CC1(C(N)=O)CCN(c2nc(N(CCO)Cc3ccccc3)nc3c2nc(-c2ccccc2Cl)n3-c2ccc(Cl)cc2)CC1: 9.30
C[C@@H](CO)Oc1nc(N2CCC(C)(C(N)=O)CC2)c2nc(-c3ccccc3Cl)n(-c3ccc(Cl)cc3)c2n1: 9.12

Consider the additional compound presented here.
q: What value of pIC50 has been reported for the following compound? Cc1ccn(-c2nc(N3CCC(C)(C(N)=O)CC3)c3nc(-c4ccccc4Cl)n(-c4ccc(Cl)cc4)c3n2)n1
a: 8.69
